Assay: yeast display, Sf9 membrane polyspecificity reagent, FACS + sequencing; frameworks hold sequencing errors
Test readout: polyreactivity (PSR sort gate)

Known results for sequences:
{"Primary sequence": "QVQLVESAGGLVQAGGSLRLSCAASGRTFQYYALGWYRQAPGKERELVAAISWSGGSTYYADSVTGRFTISRDNAKNTVYLLMNSLKPEDSAVYYCAKTSSGRKFYWGQGTQVTVSS", "polyreactivity (PSR sort gate)": "high polyreactivity"}
{"Primary sequence": "QVQLVESGGGLVQAGGTLRLSCAASGGTFRRYAMGWYRQAPGKERELVAAISWTGGSTYYADSVKGRFTISRDNAKNTVYLQMNSLKPEDSAVYYCAAVGSSSSKGGYWGQGTQVTVSS", "polyreactivity (PSR sort gate)": "high polyreactivity"}
{"Primary sequence": "QVQLVESGGGLVQAGGSLRLSCAASGFTFGVYAMGWYRPAPGKERELVAAITSGGGRTYADSVKGRFTISRDNAKNTVYLQMNSLKTEDTADYYCAAEGVPLRVVLDYSYWDYDYDYWGQGTQVTVSS", "polyreactivity (PSR sort gate)": "low polyreactivity"}
{"Primary sequence": "QVQLVESGGGLVQAGGSLRLSCAASGRTALIYAMGWYRQAPGKERELVAAITASGGNTDYADSVKGRFTISRDNAMNTVYLQMNSLKPEDTAVYYCNKSRYDGGSGYDYWGQGTQVTVSS", "polyreactivity (PSR sort gate)": "low polyreactivity"}
{"Primary sequence": "QVQLVESGGGLVQAGGSHRLSCAASGIIFYDNTMGWYRQAPGKERELVASITWRGGSTYYADSVKGRFTISRDNAKNTFYLQMNSLKPEDTAVYYCNADSSDDYDYWGQGTQVTVSS", "polyreactivity (PSR sort gate)": "low polyreactivity"}
{"Primary sequence": "QVQLVESGGGLVQAGGSLRLSCAASGRTFTGYAMGWYRKAPGKERELVAAIRRTASTYYADSVKGRFTISRDNAKNTVYLQMNSLKPEDTAVYYCAVRAAHRGTYYYWGQGTQVTVSS", "polyreactivity (PSR sort gate)": "high polyreactivity"}
{"Primary sequence": "QVQLVESGGGLVQAGGSLRLSCAASGSTFGIYAMGWYRQAPGKERELVAAISSGGSTNYADSVKGRFTISRDNAKNTVYLQMNSLKPEDTAVYYCAVESVYEYGGYVDSAYDYWGQGTQLTVSS", "polyreactivity (PSR sort gate)": "low polyreactivity"}
{"Primary sequence": "QVQLVESGGGLVQAGGSLRLTCAGSGRIFPFYAMGWYRHAPGKERELVAAISWNGGSTFYADSVKGRFTISRDNAKNTVYLQMNSLKPEDTAVYYCNADFRPAYTYDYWGQGTQVTVSS", "polyreactivity (PSR sort gate)": "low polyreactivity"}

Identify polyreactivity (PSR sort gate) associated with the sequence "QVQLVESGGGLVQARGSLRLSCAATGRTFQIYAMGWYRQAPGKERELVAAISSGGRTNYADSVKGRFTISRDNAKNTVYLQMNSLKPEDTAVYYCAKRWARPGMDYWGQGTQVTVSS"
high polyreactivity

Identify polyreactivity (PSR sort gate) associated with the sequence "QVQLVESGGGLVQAGGSLRLSCAASGRNFGNYAMGGYRQAPGKERELVAAISNGGSTNYADSVKGRVTISRDNAKNTVYFQMNSLKPEDTAVYYCNADQWAVIWGYLVLDFYYWGQGTQVPVSS"
low polyreactivity

Identify polyreactivity (PSR sort gate) associated with the sequence "QVQLQETGGGLVQVGGSQRLSCAASGNIFYNYAMGWYRHAQGKEREFDATINHGTSINDADSVKGRFTISRDNAKNTVYLQMNSLTPEDTAVYYCAADLSWTDNLFYWGQGTQETVSS"
low polyreactivity

Identify polyreactivity (PSR sort gate) associated with the sequence "QVQLVESGGGLVQAGGSLRLSCAASGIFGRNAMGWYRQAPGKERELVAAITGSGGRTYYADSVKGRFTISRDNAKNTVYLQMNSLKPEDTAVSYCAASIPSTHGYAYDYWGQGNQVTVSS"
high polyreactivity

* * *

Test: yeast display, Sf9 membrane polyspecificity reagent, FACS + sequencing; frameworks hold sequencing errors
Test readout: polyreactivity (PSR sort gate)

{"Primary sequence": "QVQLVESGGGLVQAGGSLRLSCAASGSIFRGYAMGWYRQAPEKERELVAAISRRGGSTYYADSVKGRFTISRDNAKNTVYLQMNSLKPEDTAVYYCAKDGTGAGTYDYWGQGTQVTVSS", "Test readout": "polyreactivity (PSR sort gate)", "Result": "low polyreactivity"}
{"Primary sequence": "QVQLVESGGGLVQAGGSLRLSCAASGIIFAQYTMGWYRQAPGKERELVAAINRNGGSTYYADSVKGRFTISRDNAKNTVYLQMNSLKPEDTAVYYCNADALGFRYDYWGQGTQVTLSS", "Test readout": "polyreactivity (PSR sort gate)", "Result": "low polyreactivity"}

* * *

Assay: yeast display, Sf9 membrane polyspecificity reagent, FACS + sequencing; frameworks hold sequencing errors
Test readout: polyreactivity (PSR sort gate)

Known results for sequences:
{"Primary sequence": "QVQLVESGGGLVQAGGSLRLSCAASGRIFGYYAMGWYRQAPGKERELVAAIRWSSGRTYYADSVKGRFTISRDNAKNTVYLQMNSLKPEDTAVYYCAKDGGLRKFDYWGQGTQVTVSS", "Test readout": "polyreactivity (PSR sort gate)", "Result": "high polyreactivity"}
{"Primary sequence": "QVQLVESGGGLVQAGGSLRLSCAASGRISYLYTMGWYRQAPGKERELVAAIRWRDGSTYYADSVKGRFTISRDNAKNTVYLQMNSLKPEDTAVYYCAKRFAGGEYGYYWGQGTQVTVSS", "Test readout": "polyreactivity (PSR sort gate)", "Result": "low polyreactivity"}
{"Primary sequence": "QVQLVESGGGLVQAGASLRLSCAASGFIFNQYAMGWYRQAPGKERELVAGITWRGGRTYYADSVKGRFTISRDNAKNTVYLQMNSLKPEDTAVYYCAADVAHYNGGEYYYWGQGTQVTVSS", "Test readout": "polyreactivity (PSR sort gate)", "Result": "high polyreactivity"}
{"Primary sequence": "QVQLVESGGGVVQAGGSLRLSCAASGIIFDGNAMGWYRQAPGKERELVAAITSSTDSTYYADSVKGRFTFSRDNAKNTVYLQMNSLKPEDTAVYYCAADYPSKTFDYWGQGTQVTVSS", "Test readout": "polyreactivity (PSR sort gate)", "Result": "low polyreactivity"}

Kindly consider the entry below.
Identify polyreactivity (PSR sort gate) associated with the sequence "QVQLVESGGRLVQAGGSLRLSCAASGHIFFYYTMGRYRPGPGKERELVAGITIGGSTNYADSVKGRFTISRDNAKNTVYLLMNSLKPADTAVYYCNVVKYVYISSYWEYYYWGQGAQVTVSS"
low polyreactivity

* * *

Assay: yeast display, Sf9 membrane polyspecificity reagent, FACS + sequencing; frameworks hold sequencing errors
Test readout: polyreactivity (PSR sort gate)

Known results for sequences:
{"Primary sequence": "QVQLVESGRGLVLAGGSLRLSCAASGFIFLEYAMGWYRQAPGKERELVAASSSRGTRTYYADSVKGRFTISRDNAKNTGYLQMNSLKPEDTAVYYCAARSIAPTNLKTYLLDMDYWGQGTQVTVSS", "polyreactivity (PSR sort gate)": "high polyreactivity"}
{"Primary sequence": "QVQRVESGGGLVQAVGSLRLSCAPSGIIIPVKAMGWYRQAPGKERELVAAITTGGSTNYADSVKGRFTISRDNAKNNVYLQMNSLKPEDTAVYYCAADTARTRIFDYWGQGTQVTVSS", "polyreactivity (PSR sort gate)": "low polyreactivity"}
{"Primary sequence": "QVQLVESGGGLVQAGGSLRLSCAASGSTFWGNAMGWYRQAPGKERELVAAISTSDTSTYYADSVKGRFTISRDNAKNTVYLQMNSLKPEDTAVYYCAAEWYYGEKYDYWVQGTQVTVSS", "polyreactivity (PSR sort gate)": "low polyreactivity"}
{"Primary sequence": "QVQLVESGGGLVQAGGSLRLSCAASGFIFVGNDMGWYRQAPGKERELVAAISSGGTTNYADSVKGRFTISRDNAKNTVYLQMNSLIPEDTAVYYCAADYDYRQGYDSVHLDYWGQGTQVTVSS", "polyreactivity (PSR sort gate)": "low polyreactivity"}
{"Primary sequence": "QVQLVESGGGLVQAGGSLRLSCAASGSTFLRYAMGWYRQAPGKERELVAAINWSGGGTSYADSVKWRFTISRDNAKNTVYLQMNSLKPEDTEGYSCAAYFRYSYYWSEYWGQGTQVTVSS", "polyreactivity (PSR sort gate)": "high polyreactivity"}

Identify polyreactivity (PSR sort gate) associated with the sequence "QVQLVESGGGLVQAGGSLRLSCSASGRIFKRYAMGWYRQSPGKERELVAAFTRGGSTNYADSVKGRFTISRDNAKNTVYLQMNSLKPEDTAVYYCNRYGGTRYWGRGTQVTVSS"
high polyreactivity

Identify polyreactivity (PSR sort gate) associated with the sequence "QVQLVESGGGLVQAGGSLRLSCAASGSIFTVYDMGWYRQAPGKERELVAAIDSSGGSTYYADSVKGRFTISRDNAKNTVYLQMNSLKPEDTAVYYCAADGDTTSPTYYIFWSGEFDYWGQGTQVTVSS"
low polyreactivity

Identify polyreactivity (PSR sort gate) associated with the sequence "QVQLVESGGGLVQAGGSLRLSCAASGSIFKINTMGWYRQAPGKERELVAAISKRGGSTYYADSVKGRFTISRDNAKNTVYLQMNSLKTEDTAVYYCAARQFYKYYYWGQGTQVTVSS"
high polyreactivity

Identify polyreactivity (PSR sort gate) associated with the sequence "QDQHVESGGGLVQAGGSLRLSCAASGGTFVPYAMGWYRQAPGKERELVARISKRGGTTYYADSVKGRFTISRDIAKNTVYLQMNSLKPEDTAVYYCAAGLPARGYYWGQGTQVTVSS"
high polyreactivity

Data provenance: the nanobody polyreactivity screen of Harvey et al. (2022)
